For each record, write down the corresponding cell viability.
# Tested on: Caco-2
# EXPERIMENT_DESCRIPTION: cell viability relative to DMSO; higher = less toxic
# ASSAY_CONTEXT: 72 h; 10000 nM
Numbers only, in %.

| COMPOUND | UNIT_STRING | NUMBER |
| --- | --- | --- |
| Nc1nc(=O)n([C@@H]2CS[C@H](CO)O2)cc1F | % | 109 |

For each of the items listed, what is its cell viability?
1. COc1ccc2c(C(=S)N(C)CC(=O)O)cccc2c1C(F)(F)F
2. Nc1n[nH]c2nc3ccccc3nc12
3. CC(=O)OCC(=O)[C@H]1CC[C@H]2[C@@H]3CCC4=CC(=O)CC[C@]4(C)[C@H]3CC[C@]12C [deoxycorticosterone-acetate]
4. Oc1nc(-c2ccc(C(F)(F)F)cc2)nc2c1CSCC2

1: 89.3; 2: 104; 3: 101; 4: 101
